# systemName: Tyrosyl-tRNA synthetase, putative (Trypanosoma cruzi (strain CL Brener)) (UniProt Q4DSP6)
# experimentSummary: Trypanosoma cruzi tyrosyl tRNA synthetase (TcYRS) _High Tyrosine SOP; further: in the data most compounds retested in dose-response had high values
# Assay type: functional
# Parameters: scale not given: direction of the effect not stated beside the values
# conditionContext: 30 µM
Percent Effect listing for selected compounds.
Number in %, nothing else.

>>> observedvalue("Cc1ccc(C2C3=C(COC3=O)Nc3[nH]nc(C)c32)cc1C (centres undefined)")
-22.2

Lab note: measured Percent Effect of Cc1ccc(Cl)cc1N1CCC(CNC(=O)CCn2ccnn2)C1 (centres undefined) was 5.26

Just so you know, measured Percent Effect for O=C(O)[C@@H]1CN(C(=O)c2cc(C3CC3)n[nH]2)C[C@H]1c1cccc(F)c1 came out at 3.12

Form: compound = Cn1cc(CN2CCC3(CCCN3S(C)(=O)=O)CC2)cn1 ; Percent Effect = -2.63

The recorded Percent Effect for entry Cc1c(C)n(Cc2ccncc2)c2nc3c(c(N)c12)CCCCC3 equals 3.17

Per the record, Cc1ccc(C(=O)NC(C)CN2CCCC2=O)c(=O)[nH]1 (centres undefined) has Percent Effect of 1.07

Given item Cc1ccccc1N1CC2(CCN(S(=O)(=O)c3cccs3)C2)CC1=O (centres undefined) , the value recorded as its Percent Effect is 5.8

The compound identified as CN(C)S(=O)(=O)N1CCC(Oc2ccc(C#N)cc2)CC1 registered its Percent Effect at 2.1

The reported Percent Effect of the compound Cc1cc(C)n(-c2cc(N3CCN(C(=O)C(C)(C)C)CC3)nc(C)n2)n1 was 0.546

Reported Percent Effect for O=C1CCCCN1c1cccc(CNC2CCCC2)c1 was 2.86

The recorded Percent Effect for Cc1cc(C)n(CC2CCCN2CC(=O)N(C)C)n1 (centres undefined) is -0.493

Entry O=C1O[C@@H]2CN(Cc3ccccc3)C[C@@H]2N1CCCN1CCOCC1 — recorded Percent Effect = 4.92

The compound CC(C)C(NC(=O)Cn1ccc(=O)n(C)c1=O)c1ccc(F)cc1 (centres undefined) showed Percent Effect equal to 6.86

###

# systemName: Tyrosyl-tRNA synthetase, putative (Trypanosoma cruzi (strain CL Brener)) (UniProt Q4DSP6)
# experimentSummary: Trypanosoma cruzi tyrosyl tRNA synthetase (TcYRS) SOP
# Format: functional
# Design: scale not given: direction of the effect not stated beside the values
# conditionContext: 30 µM
propertyMeasured: Percent Effect
Units required after the number.

Recorded results for 5 molecules are shown here.
>>> observedvalue("Cc1cnn(CCNCC(=O)NCC2(c3ccccc3)CCC2)c1")
"14.1%"
>>> observedvalue("COC(=O)c1cc(OCC2CCC2)cc(C(=O)N[C@H]2CC[C@H](O)CC2)c1")
"0%"
>>> observedvalue("Cc1occc1C(=O)N1CCC2(CC1)CC(c1cccnc1)C(=O)N2C (centres undefined)")
"12.5%"
>>> observedvalue("CN1CCOC(CNC(=O)Cc2ccccc2F)C1 (centres undefined)")
"25.3%"
>>> observedvalue("Cc1cc(CN(C)C(=O)NCC(C)N2CCc3ccccc32)no1 (centres undefined)")
"7.06%"

Looking up CCn1cnnc1C1CCN(C(=O)COCCc2ccccc2)CC1 , I see its Percent Effect listed as 2.35%

Form field Percent Effect, entry Cc1ncccc1OC1(C(=O)NCCNc2ccccc2)CCNCC1 : 9.76%

// field: Percent Effect; key: CC(=O)N1CCNCC1c1cccc(C(=O)N(C)C)c1 (centres undefined) ; value = 1.3%

CCCS(=O)(=O)N1CCN(c2ccnc(N3CCCC3)n2)CC1 has a reported Percent Effect of 4.88%

Percent Effect measured on CN1CCC/C1=N\S(=O)(=O)c1ccc(NC(=O)c2cccs2)cc1 = 21.2%

###

Entries and their Percent Effect
# systemName: Tyrosyl-tRNA synthetase, putative (Trypanosoma cruzi (strain CL Brener)) (UniProt Q4DSP6)
# Sequence (whole entry): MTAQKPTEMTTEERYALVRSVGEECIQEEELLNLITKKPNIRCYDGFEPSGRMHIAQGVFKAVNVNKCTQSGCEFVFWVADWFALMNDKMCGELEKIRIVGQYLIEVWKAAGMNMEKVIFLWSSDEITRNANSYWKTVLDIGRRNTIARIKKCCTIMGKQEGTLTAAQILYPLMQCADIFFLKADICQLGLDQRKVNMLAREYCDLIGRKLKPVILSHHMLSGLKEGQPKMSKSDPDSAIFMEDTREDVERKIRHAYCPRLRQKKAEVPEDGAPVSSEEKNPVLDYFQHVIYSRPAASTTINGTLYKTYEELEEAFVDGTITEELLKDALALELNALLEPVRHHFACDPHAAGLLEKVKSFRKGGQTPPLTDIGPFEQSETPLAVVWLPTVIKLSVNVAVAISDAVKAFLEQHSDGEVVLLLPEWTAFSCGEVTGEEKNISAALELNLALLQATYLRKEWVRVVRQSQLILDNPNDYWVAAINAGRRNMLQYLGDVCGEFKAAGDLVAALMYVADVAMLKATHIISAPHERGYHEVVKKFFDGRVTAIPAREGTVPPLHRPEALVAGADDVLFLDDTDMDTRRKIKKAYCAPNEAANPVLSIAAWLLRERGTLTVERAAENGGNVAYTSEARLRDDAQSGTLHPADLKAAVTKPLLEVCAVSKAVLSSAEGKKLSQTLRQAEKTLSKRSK
# experimentSummary: Trypanosoma cruzi tyrosyl tRNA synthetase (TcYRS) _High Tyrosine SOP; further: in the data most compounds retested in dose-response had high values
# Assay type: functional
# Design: scale not given: direction of the effect not stated beside the values
# conditionContext: 30 µM

# annotated cases, reported Percent Effect shown
>>> observedvalue("CC(C(=O)NCCCN1CCCCCC1=O)n1cncn1 (centres undefined)")
"5.42%"
>>> observedvalue("O=C(C1CCC1)N1CCCC1c1nnc2n1CCCCC2 (centres undefined)")
"11.9%"
>>> observedvalue("CN(Cc1cnn(-c2ccccc2)n1)CC1CCCN1c1cccnn1 (centres undefined)")
"8.37%"
>>> observedvalue("CCn1cc(NC(=O)NCC(O)CN2CCc3ccccc3C2)cn1 (centres undefined)")
"8.57%"
>>> observedvalue("Cc1ncc(CNC(=O)N(C)C2CCN(c3ccccc3)C2=O)s1 (centres undefined)")
"2.45%"
>>> observedvalue("COc1c(C2CCCN2C(=O)c2c[nH]c3ncccc23)c(C)nn1C (centres undefined)")
"5.88%"
>>> observedvalue("CC(C)(CNC(=O)NCCOc1cccc(F)c1)C(N)=O")
"6.37%"
>>> observedvalue("CCc1cccc(N2CCC(NC(=O)c3cc[nH]n3)CC2)c1")
"2.08%"

Quick note, Percent Effect for Nc1cc(CCCNC(=O)NC2CC2)nn1-c1ccccc1 landed at 0%

Entry Cc1csc([C@@H]2C[C@@H]3CCN(C(=O)c4cc(C)on4)C[C@H]3O2)n1 — recorded Percent Effect = 4.23%

// sample Cc1cccc2nc(C(=O)N3CCC(Nc4cccnn4)CC3)cn12 , its Percent Effect was 0%

The molecule identified as CC(C(=O)NCCOc1cccc(Cl)c1)n1cncn1 (centres undefined) registered its Percent Effect at -2.46%

GET /value?item= COc1ccc(COCC(O)CNC(=O)c2cccnc2)cc1 (centres undefined) &field=Percent Effect returns 1.04%

Briefly, Percent Effect measured for CC(C(=O)NCCCn1ccnc1)n1cc(Br)cn1 (centres undefined) : 7.53%

Data point: CNC(=O)C1Cn2ccnc2C2(CCN(Cc3cccnc3)CC2)O1 (centres undefined) ; Percent Effect = 9.73%

The molecule identified as O=C(NCc1ccccc1-n1cccn1)N1CCN2CCCCC2C1 (centres undefined) registered its Percent Effect at 2.63%

# Percent Effect (molecule: CCSc1cc(C(=O)NCc2ccccc2O)ccn1 ) is 3.23%

Recorded Percent Effect (molecule N#Cc1ccccc1OCCN1CCn2c(nnc2C2CC2)C1 ): 2.63%

Given item O=C(NCCNc1ncccn1)N(Cc1ccc(F)cc1F)C1CC1 , the value recorded as its Percent Effect is 2.46%

For this molecule ( Cc1[nH]c(=O)c(C#N)cc1C(=O)N1C[C@@H](CN2CCCC2)C[C@H](CO)C1 ), measured Percent Effect is -0.532%

Memo: CC(C)Cc1noc(CN2CCC(NC(=O)c3cccs3)CC2)n1 , reported Percent Effect: 6.45%

###

# systemName: Tyrosyl-tRNA synthetase, putative (Trypanosoma cruzi (strain CL Brener))
# experimentSummary: Trypanosoma cruzi tyrosyl tRNA synthetase (TcYRS) SOP
# Assay type: functional
# Set-up: scale not given: direction of the effect not stated beside the values
# conditionContext: 30 µM
propertyMeasured: Percent Effect (%)
Supply the numeric figure in %, leaving out any unit text.

Example entries begin here.
>>> observedvalue("CC(C)n1ncc2cc(NC(=O)N3CCC(N4CCCC4)C3)cnc21 (centres undefined)")
23.2
>>> observedvalue("Cn1ccc(C(=O)NC2CCC23CCN(Cc2cccnc2)CC3)c1 (centres undefined)")
-3.7
>>> observedvalue("Cc1ccc(NC(=O)c2cc(S(=O)(=O)N3CCCCC3)c[nH]2)cc1F")
-21.8
>>> observedvalue("CCSCCC(=O)NS(=O)(=O)c1ccc2c(c1)OCCO2")
10.8
>>> observedvalue("CN(Cc1ccc(F)cc1)C(=O)CN1CCCC(Cn2cncn2)C1 (centres undefined)")
3.8
>>> observedvalue("CC(C)c1cc(C(=O)N(C)Cc2cccc3ncccc23)n(C)n1")
12.5

What the record says about Cc1cccc(C2(NC(=O)CCN3C(=O)CCC3=O)CCCC2)c1 : Percent Effect is 11.4

Form: molecule = O=C(Nc1ccccc1)N1CCn2nnc(COc3cccnc3)c2C1 ; Percent Effect = 15.4
